Assay: chemical genetic growth profiling, strain panel (AID 1159580);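 also: tested at 20 µM; growth read once vehicle control cultures reached saturation at 30 °C; 1 = growth at the plate median or of vehicle wells; lower values mean less growth of the strain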
Details: S. cerevisiae deletion strains, growth OD, locus YMR125W, strain sto1, stronger effect = lower value
In all, about 5,500 compounds went through this assay and about 2,000 (36%) were called active. Not shown: some 18% with an inconclusive outcome. Some of the results follow.
TEST_READOUT: normalized growth

Name the recorded normalized growth of the molecule listed here: `O=C(O)CCC(=O)c1ccc(-c2ccccc2)cc1`
0.979 (inactive)

Name the recorded normalized growth of the molecule listed here: CCCN(CCC)C(=O)C(CCC(=O)O)NC(=O)c1ccccc1 (centres undefined)
0.975 (inactive)

Name the recorded normalized growth of the molecule listed here: `COc1ccc(-c2cc(C(F)F)nn2-c2ccc(S(N)(=O)=O)cc2)cc1F`
1.02 (inactive)

More entries:
Name the recorded normalized growth of the molecule listed here: CC[C@@H](C(=O)[C@@H](C)[C@@H](O)[C@H](C)[C@@H]1O[C@@H]([C@@H](CC)C(=O)O)CC[C@@H]1C)[C@H]1OC2(C=C[C@@H](O)[C@]3(CC[C@@](C)([C@H]4CC[C@](O)(CC)[C@H](C)O4)O3)O2)[C@H](C)C[C@@H]1C (some centres undefined)
0.932 (inactive)

---

Test: chemical genetic growth profiling, strain panel (AID 1159580);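 also: tested at 20 µM; growth read once vehicle control cultures reached saturation at 30 °C; 1 = growth at the plate median or of vehicle wells; lower values mean less growth of the strain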
Conditions: S. cerevisiae deletion strains, growth OD, locus YDR195W, strain ref2
The whole screen tested about 5,500 compounds, of which about 2,000 (36%) were called active. About 18% were inconclusive and are not listed. Some of the results follow.
This listing pairs molecules with measured normalized growth.

Name the recorded normalized growth of the molecule listed here: OC1CCCCC1N1CCC(c2ccccc2)CC1 (stereo not given)
0.941 (inactive)

Name the recorded normalized growth of the molecule listed here: `CCOP(=S)(OCC)Oc1ccc2c(C)c(Cl)c(=O)oc2c1`
1.03 (inactive)

Name the recorded normalized growth of the molecule listed here: `O=C1O[C@@H](CO)[C@H](O)[C@@H](O)[C@@H]1O`
0.99 (inactive)

Name the recorded normalized growth of the molecule listed here: NC(=O)c1cc[n+](CC2=C(C(=O)O)N3C(=O)C(NC(=O)C(c4ccccc4)S(=O)(=O)[O-])C3SC2)cc1 (stereo not given)
0.988 (inactive)

Name the recorded normalized growth of the molecule listed here: `NC(=O)c1ccc(N)nc1`
0.942 (inactive)

Name the recorded normalized growth of the molecule listed here: `O=C1N=C(O)CN1/N=C\c1ccc(-c2ccc([N+](=O)[O-])cc2)o1`
0.988 (inactive)

Name the recorded normalized growth of the molecule listed here: `c1ccc2[nH]c(-c3cscn3)nc2c1`
1.15 [resistant] (active)

Name the recorded normalized growth of the molecule listed here: CC[C@@H](C(=O)[C@@H](C)[C@@H](O)[C@H](C)[C@@H]1O[C@@H]([C@@H](CC)C(=O)O)CC[C@@H]1C)[C@H]1OC2(C=C[C@@H](O)[C@]3(CC[C@@](C)([C@H]4CC[C@](O)(CC)[C@H](C)O4)O3)O2)[C@H](C)C[C@@H]1C (stereo not given in full)
1.01 (inactive)

Name the recorded normalized growth of the molecule listed here: O=C(NC(Cc1cc(=O)[nH]c2ccccc12)C(=O)O)c1ccc(Cl)cc1 (stereo not given)
0.972 (inactive)

---

This listing pairs compounds with measured normalized growth.
Experiment: chemical genetic growth profiling, strain panel (AID 1159580);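 also: tested at 20 µM; growth read once vehicle control cultures reached saturation at 30 °C; 1 = growth at the plate median or of vehicle wells; lower values mean less growth of the strain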
Conditions: S. cerevisiae deletion strains, growth OD, locus YMR058W, strain fet3, stronger effect = lower value
The whole screen tested about 5,500 compounds, of which about 2,000 (36%) were called active. Inconclusive results (about 18%) are left out. This is one part of the list.
Answer with the value's number alone.

Some compounds with known normalized growth results, for comparison:
Name the recorded normalized growth of the compound listed here: `CC1=C(/C=C/C(C)=C/C=C/C(C)=C/C(=O)O)C(C)(C)CCC1`
0.948

Name the recorded normalized growth of the compound listed here: C=CCN1CC[C@]23c4c5ccc(O)c4OC2C(=O)CC[C@@]3(O)[C@H]1C5 (stereo partly drawn)
0.98

Name the recorded normalized growth of the compound listed here: `C=CCc1cc(OC)c2c(c1OC)OCO2`
0.951

Name the recorded normalized growth of the compound listed here: CC[C@]1(O)CC2CN(CCc3c([nH]c4ccccc34)[C@@](C(=O)OC)(c3cc4c(cc3OC)N(C=O)[C@H]3[C@@](O)(C(=O)OC)[C@H](OC(C)=O)[C@]5(CC)C=CCN6CC[C@]43[C@@H]65)C2)C1 (stereo partly drawn)
0.982

Name the recorded normalized growth of the compound listed here: `CC1=C(/C=C/C(C)=C/C=C/C(C)=C/C=C/C=C(C)/C=C/C=C(C)/C=C/C2=C(C)CCCC2(C)C)C(C)(C)CCC1`
0.985

Name the recorded normalized growth of the compound listed here: `COc1ccc2c(c1O)-c1c(OC)c(OC)cc3c1[C@H](C2)N(C)CC3`
0.968

Name the recorded normalized growth of the compound listed here: `C=CC1=C(C)/C(=C/c2[nH]c(Cc3[nH]c(/C=C4\NC(=O)C(C)=C4C=C)c(C)c3CCC(=O)O)c(CCC(=O)O)c2C)NC1=O`
0.971

More entries:
Name the recorded normalized growth of the compound listed here: COc1cc2c(cc1O)CC1c3c(cc(O)c(OC)c3-2)CCN1C (stereo not drawn)
1.01
